The measurements presented in this section are drawn from patent US8993765B2.

Parameter: melting point. Scope: all listed entries.
Counter-ions that a name gives are not always drawn.
Result Type: melting point

CC1Cc2c(c3ccc(-n4ccc(OCc5ccc(F)cn5)cc4=O)nc3n2C)CN1.Cl (centres unmarked) [Example 14] = 288 to 292 °C
Cl.O=c1cc(OCc2ccc(F)cn2)ccn1-c1ccc2c(c1)nc1n2CCNC1 [Example 19] = 245 to 255 °C
O=c1cc(-c2ccc(C(F)(F)F)nc2)ccn1-c1ccn2c3c(nc2c1)CCNC3 (as salt: hydrochloride) [Example 24] = 265 °C (dec.)
CC1Cc2c(c3ccc(N4CCN(CCc5ccc(F)cc5)CC4=O)nc3n2C)CN1.Cl (centres unmarked) [Example 12] = 252 to 256 °C
CC1Cc2c(c3ccc(-n4ccc(OCc5ccccc5)cc4=O)nc3n2C)CN1.Cl (centres unmarked) [Example 13] = 285 to 289 °C
Cl.Cn1c2c(c3ccc(-n4ccc(-c5ccc(C(F)(F)F)cc5)cc4=O)nc31)CNCC2 [Example 10] = 278 to 281 °C (dec.)
CC(=O)N1CCc2c(c3ccc(-n4ccc(OCc5ccccc5)cc4=O)nc3n2C)C1 [Example 11] = 206 to 208 °C
Cl.O=c1cc(OCc2ccccc2)ccn1-c1ccn2c3c(nc2c1)CCNC3 [Example 22] = 280 °C (dec.)
Cl.Cn1c2c(c3ccc(-n4ccc(OCc5ccc(F)cc5F)cc4=O)nc31)CNCC2 [Example 16] = 206 to 210 °C
O=c1cc(OCc2ccc(C(F)(F)F)nc2)ccn1-c1ccn2c3c(nc2c1)CCNC3 (as salt: hydrochloride) [Example 25] = 265 °C (dec.)
CC(=O)N1CCc2c(c3ccc(-n4ccc(-c5ccc(C(F)(F)F)nc5)cc4=O)nc3n2C)C1 [Example 9] = 238 to 242 °C

* * *

biological target: UniProt Q99705; assay: Binding Assay for Human Melanin-Concentrating Hormone (MCH-1) Receptor; conditions: radioligand displacement, membranes of CHO-K1 cells expressing human MCH-1 receptor; Ki by Cheng Prusoff equation; hydrochloride; read-out: MCH1 Ki
Sequence (Q99705 whole entry): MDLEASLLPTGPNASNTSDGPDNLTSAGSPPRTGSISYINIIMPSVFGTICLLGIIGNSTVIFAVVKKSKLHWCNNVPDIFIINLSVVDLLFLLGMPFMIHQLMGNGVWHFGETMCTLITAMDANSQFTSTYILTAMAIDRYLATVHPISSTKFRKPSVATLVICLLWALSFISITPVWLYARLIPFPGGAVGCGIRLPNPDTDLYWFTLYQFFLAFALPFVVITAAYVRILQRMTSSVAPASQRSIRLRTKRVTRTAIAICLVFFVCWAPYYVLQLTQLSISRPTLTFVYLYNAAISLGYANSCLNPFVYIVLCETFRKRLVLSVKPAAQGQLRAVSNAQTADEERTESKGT
pKi: −log10 of the molar value. Where a name gives a salt, the structure may show the parent alone.
Parameter: pKi. Scope: all listed entries.
Result Type: pKi

CC1Cc2c(c3ccc(-n4ccc(OCc5ccccc5)cc4=O)nc3n2C)CN1 (single isomer, unassigned; (-)) [Example 17, hydrochloride] = 8.04
CC1Cc2c(c3ccc(-n4ccc(OCc5ccccc5)cc4=O)nc3n2C)CN1.Cl (centres unmarked) [Example 13, hydrochloride] = 8.03
